- System name: SARS-CoV-2 wild-type RBD (SARS-CoV-2 wild type)
- Experiment summary: BLI
- Test context: both partners purified
Measured endpoint: kon (M⁻¹ s⁻¹)
Reply numerically in M⁻¹ s⁻¹, unit not repeated.

Recorded results for 2 binders are shown here.
C941 (antibody, V domains shown, human IgG1) VH: QVQLVQSGAEVKKPGSSVKVSCKASGGTSRSYPISWVRQAPGQGLEWMGRIIPIVGTANYAQRFQGRVTITADESTGTAYMELSSLRSEDTAVYYCARNRGYSDYGSVYYFDYWGQGTLVTVSS VL: QSVLTQPPSVSGAPGQRVTISCTGSSSNIGAGYDVHWYQQLPGAAPKLLIYRNINRPSGVPDRFSGSKSGTSASLAITGLQADDEADYYCQSYDSSLSGSVFGGGTKLTV = 153000
C978 (antibody, V domains shown, human IgG1) VH: QVQLVQSGAEVKKPGSSVKVSCKASGATFSNYIISWVRQAPGQGLEWMGRTIPLLDIANYAQKFQGRVTITADKSTRIVYMHLGSLTSEDTAVYYCATGKGYSSSSAAYYFDHWGQGTLVTVSS VL: QSVLTQPPSVSGAPGQRVTISCTGTNSNIGAGYDIHWYQQLPGTAPKLLIYGSNNRPSGVPDRFSGSKSGTSASLAITGLQAEDEADYYCQSYDSSLSGSEVFGGGTKLTVL = 531000

# input for lookup
Answer with the recorded kon of C807 (antibody, V domains shown, human IgG1) VH: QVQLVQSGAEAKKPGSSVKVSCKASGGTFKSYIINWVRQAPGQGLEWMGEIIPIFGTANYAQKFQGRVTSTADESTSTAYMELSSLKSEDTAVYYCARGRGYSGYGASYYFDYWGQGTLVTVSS VL: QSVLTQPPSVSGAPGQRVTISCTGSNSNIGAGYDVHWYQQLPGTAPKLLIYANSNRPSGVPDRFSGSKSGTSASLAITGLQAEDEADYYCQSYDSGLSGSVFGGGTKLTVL only.
547000
